Entry source: the RNAGym collection of RNA variant scans (doi:10.1093/nar/gkz1192)

B1: CPEB3 Ribozyme (parent)
chain: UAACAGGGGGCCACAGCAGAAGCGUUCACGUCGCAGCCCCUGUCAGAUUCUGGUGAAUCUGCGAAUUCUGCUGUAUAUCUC

- Variants of: B1
- procedure text: self-cleavage, relative activity (ratio to wild type); higher = more cleavage; in vitro, sequencing
reported property: self-cleavage
Answer with a bare number; do not write a unit.

Some solved entries appear below for comparison.
G33U U51G	0.09
C37U A57G	0.58
A3U U31A	0.55
C29U U76C	0.52
G16C A20G	0.11

Measured self-cleavage of A13G U41C : 0.79

Measured self-cleavage of C4A U78C : 0.74

Measured self-cleavage of A45G G52A : 0.94

Measured self-cleavage of G8A A45G : 0.29

Measured self-cleavage of G9A U78A : 0.44

Measured self-cleavage of G24A A28G : 0.25

Measured self-cleavage of U48A U80A : 0.87

Measured self-cleavage of A2G U25A : 0.36

Measured self-cleavage of C39A U78C : 0.26

Measured self-cleavage of A45G U60A : 0.53
